Collected pEC50 values appear next to each entry.
tested on: FluA H1N1 PR8; assay: microbe, parasite or virus in culture; assay type: cell-based; settings: Influenza A virus, 48 h; MDCK cells, CPE inhibition, 2 days; positive controls; read-out: Antiviral activity EC50 FluA H1N1 PR8
pEC50: −log10 of the molar value.
RECORDED METRIC: pEC50

structure=NC12CC3CC(CC(C3)C1)C2 assayed_target="FluA H1N1 PR8" bound_sign=< observed=4.00
structure=NC(=O)c1ncn([C@@H]2O[C@H](CO)[C@@H](O)[C@H]2O)n1 assayed_target="FluA H1N1 PR8" bound_sign== observed=4.52

###

assay: in vitro; settings: dog
RECORDED METRIC: CC50

compound="NC12CC3CC(CC(C3)C1)C2 [AMT, amantadine]" observed="> 100 µM"
